System: COLO 205 colon
Test: NCI-60 one-dose screen, 48 h
Conditions: 10 µM unless noted
This is part of a sample that, as a whole, favours compounds with a hit. Of some 83,000 tested, about 20% had one in any assay. Active and inactive are the calls of the source. Rule for the calls: active = growth percent below 10; inactive = the rest.
Permitted responses: 1.0 for active, 0.0 for inactive

*Q* Record lookup: outcome of this test for N#CC1c2ccccc2C=CN1C(=O)N(c1ccccc1)c1ccccc1 (stereo unspecified) ?
*A* 1.0

*Q* Record lookup: outcome of this test for CC(=O)/C(=C/c1ccc(Cl)cc1)C(=O)c1ccccc1 ?
*A* 0.0

*Q* Record lookup: outcome of this test for Cc1cc(C)cc(S(=O)(=O)n2ccc(-c3ccc4c(c3)CCC(C)(C)O4)n2)c1 ?
*A* 0.0

*Q* Record lookup: outcome of this test for COc1ccc(C2CC(c3ccc(Nc4ccnc5cc(Cl)ccc45)cc3)=NN2C(C)=O)cc1 (stereo unspecified) ?
*A* 0.0

*Q* Record lookup: outcome of this test for O=C1OC2(c3ccccc31)c1ccccc1-c1ccccc12 ?
*A* 0.0

*Q* Record lookup: outcome of this test for O=C(NN1C(=O)c2cc(C(=O)O)c(C(=O)O)cc2C1=O)c1ccncc1 ?
*A* 0.0

Data provenance is PubChem BioAssay (NCI).
